Please provide measured Kd for the entries that follow.
# Tested target: T1, μ2 subunit of clathrin-adaptor protein 2 (AP2-μ2), residues 158–435, wild type (rat, UniProt P84092 158-435)
# T1 construct: also called recombinant AP2-μ2; μ2 subunit of rat AP2; source: E. coli BL21(DE3) RIL, purified (Ni-NTA, SEC)
# T1 sequence (looked up): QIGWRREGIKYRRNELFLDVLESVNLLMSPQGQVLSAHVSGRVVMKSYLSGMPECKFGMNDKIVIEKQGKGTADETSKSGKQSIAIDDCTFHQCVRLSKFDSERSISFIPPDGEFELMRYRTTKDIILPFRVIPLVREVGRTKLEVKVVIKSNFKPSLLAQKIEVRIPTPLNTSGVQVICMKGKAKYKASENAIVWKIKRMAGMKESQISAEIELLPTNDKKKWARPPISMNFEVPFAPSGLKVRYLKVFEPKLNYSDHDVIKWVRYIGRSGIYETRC
# Protocol summary: ITC; peptide titrated into recombinant AP2-μ2; 50 mM Tris-HCl (pH 7.5), 500 mM NaCl, 3 mM β-mercaptoethanol; in Fig. 2 peptide 0.2 mM into 10 μM AP2-μ2
# Reported conditions: both partners purified
Numbers only, in nM.

binder="LYCYEQLNDEEEEEDEID (HPV16 E7 residues 22–39 with S31E and S32E; source: synthetic peptide, bought: Dandicure (Korea)) [HPV16 E7(22–39; S31E∙S32E) 18-mer phosphomimetic peptide]" reported_metric=Kd data_value=2340
binder="LYCYEQLNDSS (source: synthetic peptide, bought: Dandicure (Korea)) [HPV16 E7(22–32) wild-type 11-mer peptide]" reported_metric=Kd data_value=5880
binder="LYCYEQLNDSSEEEDEID (HPV16 E7 residues 22–39; source: synthetic peptide, bought: Dandicure (Korea)) [HPV16 E7(22–39) wild-type 18-mer peptide]" reported_metric=Kd data_value=3340
binder="LYCYEQLNDEE (also called 11-mer phosphomimetic mutant HPV16 E7 peptide; source: synthetic peptide, bought: Dandicure (Korea)) [HPV16 E7(22–32; S31E∙S32E) 11-mer phosphomimetic peptide]" reported_metric=Kd data_value=1540

Please supply the value of reported Kd for the item QPETTDLYCYEQLNDEE (source: synthetic peptide, bought: Dandicure (Korea)) [HPV16 E7(16–32; S31E∙S32E) 17-mer peptide]
1640
